test: NCI Yeast Anticancer Drug Screen. Data for the mlh1 rad18 strain (AID 175); conditions: S. cerevisiae mlh1 rad18 strain growth inhibition; at 5.0 µM (retest, dose inferred, filed as 0.5)
This is part of a sample that, as a whole, favours compounds with a hit. Of some 79,000 tested, about 15% had one in any assay. Calls of active or inactive are those of the source. No stated cut-off is given here; in the data, active means growth inhibition above about 70%; inactive means the rest.
Your response should consist of one outcome taken from class 1 = active, class 0 = inactive

Sample answers from the record:
COc1ccc2c(c1)CCn1c(C)c(COC(=O)NC(C)C)c(COC(=O)NC(C)C)c1-2	class 0
CC(CC(C)[C@H]1CCC2[C@H]3C(CC(=O)[C@@]21C)[C@@]1(C)CCC(O)C[C@H]1C[C@@H]3O)C(=O)O (some centres not stated)	class 0
CCN(C(=O)C(F)(F)F)c1ccc2c(c1)C(=O)c1ccccc1-2	class 0
CC1=C(C(=O)OCCc2ccc([N+](=O)[O-])cc2)C(c2ccccc2[N+](=O)[O-])C(C(=O)OC(C)C)=C(C)N1 (configuration not stated)	class 0

Lookup: Recorded test call requested for CC(=O)c1c2c(cc3c1CC1(C3)Cc3cc4c(c(C(=O)O)c3C1)CCCC4)CCCC2 (configuration not stated) (tested in a mixture with another compound)
Found: class 1

Lookup: What did this assay record as the result for "O=Cc1ccc(-c2nccc3c2[nH]c2ccccc23)o1" ?
Found: class 0

Lookup: Hey, what did the test say about "CN(C)CCCC(=O)OCC[N+](C)(C)C" ?
Found: class 0

Lookup: Given "NC(=O)c1ccccc1OC(=O)NCCO" , state the outcome it received in this test.
Found: class 0

Lookup: Test call for this compound, please: "CCNc1nc(C(F)(F)F)nc2nc[nH]c12"
Found: class 0
